# Test system: S6K1
# setupConditions: concentration: 1 μM, replicates: in singlicate; n = 1;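 further: KINOMEscan kinase panel screen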
Provide the recorded %Inh for the entries that follow.
One number for each entry, in %.

Examples with their reported %Inh follow.
CCn1c(-c2c(N)noc2C)nc2cnccc21 [SB-737856]	0
CNCc1ccc2nc(NC(=O)c3ccc(C(C)(C)C)cc3)cn2c1	17
CNc1nc(-c2ccc3c(N)n[nH]c3c2)cc(N2C[C@@H](C(=O)NC3CCCCC3)OC[C@H]2C)n1 [GSK2375584]	10
COc1nccc(-c2c(-c3ccc(F)cc3)ncn2CCCN2CCOCC2)n1 [SB-282852]	29
COc1ccc(Nc2nccc(N3CCC(NC(=O)c4cc5ccccc5s4)C3)n2)cc1 (stereo not drawn) [GSK1379738]	0
CSc1ccc(-c2nc3n(c2-c2ccncc2)CCC3)cc1 [SKF-105561]	0
COC(=O)C(NC(=O)NC1CCN(c2ccnc(Nc3ccc(F)cc3)n2)C1)c1ccccc1 (stereo not drawn) [GSK1379712]	0
Cc1ccc(NC(=O)Nc2ccccc2F)cc1-c1ccc(C(=O)Nc2ccncc2)cc1 [GSK1398477]	13

Next:
Reported %Inh for CCCCc1nn2ncccc2c1-c1ccnc(NC2CC2)n1 [GW684374] was 0

---

Provide the recorded %Inh for the entries that follow.
# System: MST1
# Construct: gene STK4
# setupConditions: concentration: 1 μM, replicates: in singlicate; n = 1
Give bare numbers, in %.

Examples with their reported %Inh follow.
CC(=O)c1c(C)c2cnc(Nc3ccc(N4CCNCC4)cn3)nc2n(C2CCCC2)c1=O	0
Cc1ccc(NC(=O)Nc2ccccc2)cc1-c1ccc(C(=O)Nc2ccncc2)cc1	0
Cc1ccccc1Cn1ccn2c(=O)cc(N3CCOCC3)nc12	0
CCn1c(-c2ccccc2)nc2cnccc21	27

Next:
Reported %Inh for COc1ccc(CSc2nnc(-c3ccc4nccn4c3)o2)cc1C(F)(F)F was 0

---

# System: NLK
# setupConditions: concentration: 1 μM, replicates: in singlicate; n = 1
Provide the recorded %Inh for the entries that follow.
Numbers only, in %.

Examples with their reported %Inh follow.
Fc1ccc(-c2nc[nH]c2-c2ccncc2)cc1	49
CNc1cc(-c2ccc3c(N)n[nH]c3c2)nc(N)n1	27
COC(=O)c1cccc(NC(=O)NC2CCN(c3ccnc(Nc4ccc(F)cc4)n3)C2)c1 (stereo not shown)	0
CCn1c(-c2c(N)noc2C)nc2cnccc21	0
Cn1cnc2c(N)ncnc21	0
Cc1nccc(-c2c(-c3ccc(F)cc3)ncn2CCCN2CCOCC2)n1.Cl	0
Cc1c(Cn2c(C)c(C)n3c(=O)cc(N4CCOCC4)nc23)cccc1C(F)(F)F	12
Cn1cncc1-c1cc2c(Nc3ccc(OCc4ccccc4)cc3)ncnc2cn1	29
c1ccc(-c2ccnc3[nH]ccc23)cc1	23

Next:
Record for COc1ccc(CSc2nnc(-c3ccc4ncsc4c3)o2)cc1C(F)(F)F under target or system NLK: %Inh reported as 0

---

# Tested on: MAP3K3
# setupConditions: concentration: 1 μM, replicates: in singlicate; n = 1
metricName: %Inh
Answer format: value, then unit.

Examples with their reported %Inh follow.
Cc1ccc(-c2nc(Nc3ccncc3)c3ccccc3n2)s1	0%
COc1ccc(Nc2nccc(N3CCC(NC(=O)C(C)c4ccc(Cl)cc4)CC3)n2)cc1 (stereo not drawn)	0%
COc1nccc(-c2c(-c3ccc(F)cc3)ncn2CCCN2CCOCC2)n1	13%
O=c1cc(N2CCOCC2)nc2n(Cc3cccc(Cl)c3Cl)c3ccccc3n12	0%
Cc1ccc(NC(=O)c2ccc(Cl)cc2)cc1-c1ccc(C(=O)Nc2ccncc2)cc1	0%
COC(=O)C(Cc1ccccc1)NC(=O)NC1CCN(c2ccnc(Nc3ccc(F)cc3)n2)C1 (stereo not drawn)	0%

Parameters: items (list). Returns: %Inh for each item.
1. c1ccc(-c2ccnc3[nH]ccc23)cc1
2. O=C(Nc1n[nH]c2cc(-c3ccsc3)ccc12)C1CC1
3. CNc1nc(-c2ccc3c(N)n[nH]c3c2)cc(N2C[C@@H](C(=O)NC3CCCCC3)OC[C@H]2C)n1

1: 5%; 2: 5%; 3: 0%

---

Provide the recorded %Inh for the entries that follow.
# System: NEK5
# setupConditions: concentration: 1 μM, replicates: in singlicate; n = 1
Numbers only, in %.

Examples with their reported %Inh follow.
Fc1ccc(-c2nc3n(c2-c2ccncc2)CCS3)cc1 [GI98581]	8
O=C(Nc1n[nH]c2nc(-c3cccs3)c(Br)cc12)C1CCCC1 [SB-743341]	14
O=C(Nc1n[nH]c2cc(-c3ccsc3)ccc12)C1CC1 [SB-732932]	0
Nc1ncnc2occ(-c3ccc4c(c3)CCN4C(=O)Cc3cc(F)ccc3F)c12 [GSK2645446]	22
CSc1ccc(-c2nc3n(c2-c2ccncc2)CCC3)cc1 [SKF-105561]	0

Parameters: items (list). Returns: %Inh for each item.
1. COc1cccc(CNC(=O)NC2CCN(c3ccnc(Nc4ccc(F)cc4)n3)C2)c1 (stereo not drawn) [GSK1379723]
2. Fc1ccc(-c2nn3cccc(F)c3c2-c2ccncc2)cc1 [GW475620]
3. Cn1cncc1C(=O)NC1CCN(c2ccnc(Nc3ccc(F)cc3)n2)C1 (stereo not drawn) [GSK1379717]
4. CC[C@@H]1CO[C@H](C(=O)Nc2ccccc2)CN1c1cc(-c2ccc3c(N)n[nH]c3c2)nc(NC)n1 [GSK2376236]

1. 21
2. 0
3. 17
4. 19

---

# System: PLK1
# setupConditions: concentration: 1 μM, replicates: in singlicate; n = 1
metricName: %Inh (%)
Give bare numbers, in %.

Examples with their reported %Inh follow.
CC(C)c1cc(-c2ccc3c(N)n[nH]c3c2)nc(N)n1	0
COc1cccc(C2=C(Nc3cc(Cl)c(O)c(Cl)c3)C(=O)NC2=O)c1	0
Nc1nccc(-c2c(-c3ccc(F)cc3)ncn2C2CCN(Cc3ccccc3)CC2)n1	12

Parameters: items (list). Returns: %Inh for each item.
1. COC(=O)c1cccc(NC(=O)NC2CCN(c3ccnc(Nc4ccc(OC)cc4)n3)C2)c1 (stereo not shown)
2. O=C(Nc1n[nH]c2nc(-c3cccs3)c(Br)cc12)C1CCCC1
3. CC(C)c1ccc(O)cc1Nc1ccnc2ccc(C(F)(F)F)cc12
4. COc1cc2ncnc(Nc3cccc(Br)c3)c2cc1OC.Cl
5. COc1ccc(CSc2nnc(-c3ccc4ncsc4c3)o2)cc1C(F)(F)F
6. COc1ccc(Nc2nccc(N3CCC(NC(=O)c4cc5ccccc5s4)C3)n2)cc1 (stereo not shown)

1. 0
2. 0
3. 0
4. 2
5. 0
6. 11

Parameters: items (list). Returns: %Inh for each item.
1. COc1ccc(Nc2nccc(NCCNC(=O)Nc3cc(C)ccc3C)n2)cc1
2. COc1ccc(Nc2nccc(N3CCC(NC(=O)C(C)c4ccc(Cl)cc4)C3)n2)cc1 (stereo not shown)
3. COC(=O)C(Cc1ccccc1)NC(=O)NC1CCN(c2ccnc(Nc3ccc(F)cc3)n2)C1 (stereo not shown)
4. CS(=O)(=O)CCNCc1nc(-c2ccc3ncnc(Nc4ccc(OCc5ccccc5)c(Cl)c4)c3c2)cs1.Cl

1. 0
2. 0
3. 6
4. 0

---

# System: LZK
# Construct: gene MAP3K13
# setupConditions: concentration: 1 μM, replicates: in singlicate; n = 1
Provide the recorded %Inh for the entries that follow.
Numbers only, in %.

Examples with their reported %Inh follow.
CC(C)c1ccc(O)cc1Nc1ccnc2ccc(C(F)(F)F)cc12	0
Cc1ccccc1Cn1ccn2c(=O)cc(N3CCOCC3)nc12	0
CC(=O)c1cccc(NC(=O)NC2CCN(c3ccnc(Nc4ccc(F)cc4)n3)C2)c1 (stereo not shown)	28

Reported %Inh for COc1cccc(CNC(=O)NC2CCN(c3ccnc(Nc4ccc(F)cc4)n3)C2)c1 (stereo not shown) was 0

---

# Test system: DCAMKL3
# Construct: gene DCLK3
# setupConditions: concentration: 1 μM, replicates: in singlicate; n = 1
metricName: %Inh (%)
Answers are plain numbers, in %.

Examples with their reported %Inh follow.
CC[C@@H]1CO[C@H](C(=O)Nc2ccccc2)CN1c1cc(-c2ccc3c(N)n[nH]c3c2)nc(NC)n1	90
Cn1cnc2c(N)ncnc21	11
CSc1ccc(-c2nc3n(c2-c2ccncc2)CCC3)cc1	21

Parameters: items (list). Returns: %Inh for each item.
1. COc1ccc(Nc2nccc(NCCNC(=O)Nc3cc(C)ccc3C)n2)cc1
2. Cc1c(Cn2c(C)c(C)n3c(=O)cc(N4CCOCC4)nc23)cccc1C(F)(F)F
3. COC(=O)C(Cc1ccccc1)NC(=O)NC1CCN(c2ccnc(Nc3ccc(F)cc3)n2)C1 (stereo not drawn)

1. 0
2. 5
3. 8

---

# System: S6K1
# setupConditions: concentration: 1 μM, replicates: in singlicate; n = 1
Provide the recorded %Inh for the entries that follow.
Give bare numbers, in %.

Examples with their reported %Inh follow.
CN1c2ccc(-c3ccc(C(N)=O)cc3)cc2-c2[nH]ncc2S1(=O)=O	0
Cc1ccc(-c2nc(Nc3ccncc3)c3ccccc3n2)s1	0
CNc1nc(-c2ccc3c(N)n[nH]c3c2)cc(N2C[C@@H](C(=O)Nc3ccccc3)CC[C@H]2C)n1	0
CS(=O)(=O)CCNCc1nc(-c2ccc3ncnc(Nc4ccc(OCc5ccccc5)c(Cl)c4)c3c2)cs1.Cl	6
COc1ccc(Nc2nccc(-c3ccc(NC(=O)c4cc5cc(F)ccc5[nH]4)cc3)n2)cc1	1

Parameters: items (list). Returns: %Inh for each item.
1. CS(=O)(=O)CCNCc1nc(-c2ccc3ncnc(Nc4ccc5c(cnn5Cc5ccccc5)c4)c3c2)cs1.Cl.Cl
2. Cc1cccc2c(-c3ccncn3)c(-c3ccc(F)cc3)nn12
3. COc1ccc(CSc2nnc(-c3ccc4c(c3)CCO4)o2)cc1
4. Cc1c(Cn2c(C)c(C)n3c(=O)cc(N4CCOCC4)nc23)cccc1C(F)(F)F

5
1
0
0

The origin of these recorded values is paper PMC5540273.
